inhibition at 10 µM values, listed per item
Molecular target: TLR9 (Homo sapiens)
Construct: expressed in transfected cells; host or cells: HEK293
Test: TLR9 screening of (+)-morphinan library, SEAP reporter in HEK293 cells expressing TLR9
Assay type: cell-based
Settings: HEK293, read-out: % Inhibition (mean), 10 μM; activator ODN2006

compound	testedOn	inhibition at 10 µM
COc1ccc2c3c1O[C@@H]1C(OC(C)=O)=CC[C@]4(O)[C@H](C2)N(C(C)=O)CC[C@@]314	TLR9 (Homo sapiens)	22%

Value lookup for inhibition at 10 µM; key = COc1cc(-c2ccoc2)c2c3c1O[C@@H]1C(=O)CCC4C(C2)N(CC2CC2)CC[C@]341 (some centres unmarked) 92%

Follow-up item: COc1ccc2c3c1O[C@@H]1C(O)CC[C@@H]4[C@H](C2)N(CC2CC2)CC[C@@]314 (some centres unmarked) 72%

Then this compound: CN[C@@H]1CC[C@]2(O)[C@@H]3Cc4ccc(O)c5c4[C@]2(CCN3CC2CC2)[C@@H]1O5 92%

# iterate: C=CCN1CC[C@@]23c4c5ccc(OC)c4OC2C(O)CCC3C1C5 (some centres unmarked) 90%

Continue with O=C1CC[C@@H]2[C@@H]3Cc4ccc(OCc5ccccc5)c5c4[C@]2(CCN3CC2CC2)[C@@H]1O5 91%

Entry COc1ccc2c3c1OC1C(OC(C)=O)CCC4C(C2)N(C)CC[C@]341 (some centres unmarked) please 7%

Now consider COc1ccc2c3c1O[C@@H]1C(=O)CC[C@@H]4[C@H](C2)N(Cc2ccccc2)CC[C@@]314 and answer again. 77%

COc1ccc2c3c1O[C@@H]1C(N)CC[C@]4(O)[C@H](C2)N(C)CC[C@@]314 (some centres unmarked) ? 94%

Let us now turn to COc1ccc2c(c1O)[C@@]13CCN(C)[C@@H](C2)[C@@]1(O)CCC(=O)C3 63%

Now try NC1CC[C@]2(O)[C@@H]3Cc4ccc(O)c5c4[C@]2(CCN3CC2CC2)[C@@H]1O5 (some centres unmarked) . 93%

Could you do the same for COc1cc(Br)c2c(c1O)[C@@]13CCNC(C2)C1CCC(=O)C3 (some centres unmarked) , please? 85%

Cool, now C=CCN1CC[C@@]23c4c5ccc(OC)c4O[C@@H]2C2(CC[C@@H]3[C@@H]1C5)OCCO2 24%

Same for COc1ccc2c3c1O[C@@H]1C(O)CC[C@@H]4[C@H](C2)N(CC2CCC2)CC[C@@]314 (some centres unmarked) 39%

Try the compound C=C1CC[C@]2(O)[C@@H]3Cc4ccc(OC)c5c4[C@]2(CCN3C)[C@@H]1O5 28%

Please answer likewise for CO[C@]12CCC(=O)[C@H]3Oc4c(O)ccc5c4[C@]31CCN(CC1CC1)[C@H]2C5 25%

For COc1ccc2c3c1O[C@@H]1C(=O)CC[C@@H]4[C@H](C2)N(CC2CC2)CC[C@@]314 then? 94%

Request: COc1cc(Br)c2c(c1OC(C)=O)[C@@]13CCN(CC4CC4)C(C2)C1CCC(=O)C3 (some centres unmarked) 91%

// query: COC1=CC=C2[C@@H]3Cc4ccc(OC)c5c4[C@]2(CCN3C)[C@@H]1O5 34%

// next record COc1ccc2c3c1O[C@@H]1C(OC)(OC)C(Br)CC4[C@H](C2)N(C)CC[C@]341 (some centres unmarked) 34%

====

Listing of recorded OD 650 nm (mean ± sd) by entry.
Biological target: TLR9 (Homo sapiens, UniProt Q9NR96)
Construct: expressed in transfected cells; host or cells: HEK293
Sequence (Q9NR96 26-1032): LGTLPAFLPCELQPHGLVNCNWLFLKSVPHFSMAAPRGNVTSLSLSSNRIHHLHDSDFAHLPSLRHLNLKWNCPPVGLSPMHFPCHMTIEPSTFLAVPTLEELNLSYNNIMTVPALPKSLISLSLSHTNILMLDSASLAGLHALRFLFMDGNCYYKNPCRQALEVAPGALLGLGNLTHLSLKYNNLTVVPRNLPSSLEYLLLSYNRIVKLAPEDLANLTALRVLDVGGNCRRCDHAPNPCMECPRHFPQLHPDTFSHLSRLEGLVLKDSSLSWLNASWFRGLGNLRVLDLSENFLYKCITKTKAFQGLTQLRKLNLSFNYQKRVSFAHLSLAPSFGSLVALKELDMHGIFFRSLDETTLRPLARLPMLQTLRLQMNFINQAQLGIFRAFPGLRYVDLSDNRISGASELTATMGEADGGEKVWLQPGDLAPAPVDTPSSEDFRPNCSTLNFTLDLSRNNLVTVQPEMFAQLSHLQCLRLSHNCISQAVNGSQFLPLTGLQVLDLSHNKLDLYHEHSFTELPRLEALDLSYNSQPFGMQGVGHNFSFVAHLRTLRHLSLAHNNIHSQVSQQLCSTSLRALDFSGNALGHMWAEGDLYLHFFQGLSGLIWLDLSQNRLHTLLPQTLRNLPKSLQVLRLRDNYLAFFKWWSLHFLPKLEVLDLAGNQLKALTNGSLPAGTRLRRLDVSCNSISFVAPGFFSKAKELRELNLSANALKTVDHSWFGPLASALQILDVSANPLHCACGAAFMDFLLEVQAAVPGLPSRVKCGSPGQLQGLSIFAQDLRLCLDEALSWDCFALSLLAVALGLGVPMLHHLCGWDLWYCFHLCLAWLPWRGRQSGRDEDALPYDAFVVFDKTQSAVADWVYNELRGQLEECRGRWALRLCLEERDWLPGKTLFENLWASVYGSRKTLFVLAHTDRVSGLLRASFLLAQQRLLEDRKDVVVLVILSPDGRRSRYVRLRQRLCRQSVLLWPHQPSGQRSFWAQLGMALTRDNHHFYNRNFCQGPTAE
Test: TLR9 screening of (+)-morphinan library, SEAP reporter in HEK293 cells expressing TLR9
Format: cell-based
Conditions: 100 nM; activator ODN2006; control (no activator) 0.14, activator 1.42 OD
Supply the numeric figure in OD, leaving out any unit text.

compound	unitDescriptor	OD 650 nm (mean ± sd)
COc1cc(Br)c2c(c1O)[C@@]13CCN(CC4CC4)C(C2)C1CCC(=O)C3 (stereo partly shown)	OD	1.10
CN(C(=O)/C=C/c1ccoc1)[C@H]1CC[C@]2(O)[C@@H]3Cc4ccc(O)c5c4[C@]2(CC[N+]3([O-])CC2CC2)[C@@H]1O5 (stereo partly shown)	OD	0.23
COc1ccc2c3c1O[C@@H]1C(O)CC[C@]4(O)[C@H](C2)N(CC2CC2)CC[C@@]314 (single isomer, unassigned) [II-53b]	OD	1.41

Give OD 650 nm (mean ± sd) (TLR9 (Homo sapiens, UniProt Q9NR96)) of the following compound: C=C1CC[C@]2(O)[C@@H]3Cc4ccc(OC)c5c4[C@]2(CCN3C)[C@@H]1O5 1.27

Param item: [O-][N+]1(CC2CC2)CC[C@@]23c4c5ccc(O)c4O[C@@H]2[C@H](O)CC[C@]3(O)[C@@H]1C5 (stereo partly shown) 1.39

Query C=CCN1CC[C@@]23c4c5ccc(OC)c4O[C@@H]2C(=C)CC[C@@H]3[C@@H]1C5 next 1.31

Another compound to check: COc1ccc2c(c1)CCN(C)[C@@H]2Cc1ccc(OC)c(O)c1 1.11

====

Target: TLR9 (Homo sapiens, UniProt Q9NR96)
Construct: expressed in transfected cells; host or cells: HEK293
Experiment: TLR9 screening of (+)-morphinan library, SEAP reporter in HEK293 cells expressing TLR9
Type: cell-based
Conditions: 10 μM; activator ODN2006; control (no activator) 0.14, activator 1.42 OD
Mark each entry Satisfied if its OD 650 nm (mean ± sd) sits below 0.8 OD, and Not satisfied for all others.

compound	assignedCategory
C=C1CC[C@]2(O)[C@@H]3Cc4ccc(O)c5c4[C@]2(CCN3CC2CC2)[C@@H]1O5 [II-77]	Not satisfied

Take the compound COc1ccc2c(c1)CCN(CC1CCC1)[C@@H]2Cc1ccc(OC)c(O)c1 [III-4] and say whether its OD 650 nm (mean ± sd) is less than 0.8 OD. Satisfied

And the next one, COc1cc(-c2ccoc2)c2c3c1O[C@@H]1C(=O)CCC4C(C2)N(CC2CC2)CC[C@]341 (some centres unmarked) [II-26] ? Satisfied

Also O=C1CC[C@]2(O)[C@@H]3Cc4ccc(O)c5c4[C@]2(CCN3CC2CC2)[C@@H]1O5 [II-73] , if possible. Not satisfied

Here is the next compound: COc1ccc2c3c1O[C@@H]1C(=O)CC[C@@H]4[C@H](C2)N(C(=O)C2CC2)CC[C@@]314 [II-30] Not satisfied

Please do the same for COc1ccc2c3c1O[C@@H]1[C@@H]4CCC5(O4)[C@H](C2)N(C)CC[C@@]315 [II-46] as well. Not satisfied

====

Target: TLR9 (Homo sapiens, UniProt Q9NR96)
Construct: expressed in transfected cells; host or cells: HEK293
Experiment: TLR9 screening of (+)-morphinan library, SEAP reporter in HEK293 cells expressing TLR9
Assay type: cell-based
Settings: HEK293, read-out: % Inhibition (mean), 10 μM; activator ODN2006
assayEndpoint: inhibition at 10 µM
I'd appreciate it if you wrote the number followed by its unit.

Please review the following examples before continuing.
compound	inhibition at 10 µM
COc1ccc2c(c1O)[C@@]13CCN(C)[C@@H](C2)[C@H]1CC(OC)C(O)C3 (stereo partly shown)	27%
CN(C(=O)/C=C/c1ccoc1)[C@H]1CC[C@]2(O)[C@@H]3Cc4ccc(O)c5c4[C@]2(CCN3CC2CC2)[C@@H]1O5	87%
COc1ccc2c3c1O[C@@H]1C(=O)CC[C@@H]4[C@H](C2)N(C(C)=O)CC[C@@]314	3%

Data request, read-out inhibition at 10 µM, for COC1=CCC2[C@@H]3Cc4ccc(OC)c5c4[C@]2(CCN3C(=O)Oc2ccccc2)[C@@H]1O5 (stereo partly shown) -2%

Also check COc1ccc2c3c1O[C@@H]1C(=O)CC[C@@H]4[C@H](C2)N(C(=O)c2ccccc2)CC[C@@]314 3%

And the next one, COc1ccc2c(c1OCc1ccccc1)[C@@]13CCN[C@@H](C2)[C@H]1CC(OC)C(=O)C3 (stereo partly shown) ? 87%

Could you do the same for C=CCN1CC[C@@]23c4c5c(Br)cc(OC)c4O[C@@H]2C(=O)CCC3C1C5 (stereo partly shown) , please? 13%

Also need [O-][N+]1(CC2CC2)CC[C@@]23c4c5ccc(O)c4O[C@@H]2[C@H](O)CC[C@]3(O)[C@@H]1C5 (stereo partly shown) , thanks. 88%

Queued: COC(=O)CCc1cc(OC)c(O)c2c1CC1C3CCC(=O)C[C@@]23CCN1CC1CC1 (stereo partly shown) 68%

One more compound: COc1ccc2c3c1O[C@@H]1C(=O)CC[C@]4(O)[C@H](C2)N(C(C)=O)CC[C@@]314 -6%

Next up: C=CCN1CC[C@@]23c4c5ccc(OC)c4OC2C(NCCC)CCC3C1C5 (stereo partly shown) 92%

Same lookup for COc1ccc2c3c1O[C@@H]1[C@H](O)CC[C@@H]4[C@H](C2)N(CC2CC2)CC[C@]341 , please. 85%
